FYI, the data here is from PubChem BioAssay (NCI).

- Test system: SK-MEL-28 melanoma
- Protocol Details: NCI tumour cell line growth inhibition, 48 h
Task for the reader: assign each of the following compounds its reported TGI.

Compound: CC(=O)c1ccccc1NP(=O)(c1ccccc1)c1ccccc1
Target Of Assay: SK-MEL-28 melanoma
Property: TGI
Result: > 100 µM

Quick batch: TGI for everything below.
1. O=C1Sc2cc3ccccc3cc2C(=O)Sc2ccc(Br)cc21
2. C=CCc1cccc2cc(C(=O)NCc3ccccc3)c(=N)oc12
3. N#Cc1c(NC(=O)NCc2ccccc2)sc2c1CCCCC2

[A]
1. 9.79 µM
2. > 100 µM
3. > 100 µM

---

- Tested on: OVCAR-8 ovarian
- Protocol Details: NCI tumour cell line growth inhibition, 48 h
Task for the reader: assign each of the following compounds its reported TGI.

Compound: O=C(Nc1ccccc1)c1cc(S(=O)(=O)NC2=NC(c3ccccc3)c3cc(Cl)ccc3N2)c(SSc2cc(Cl)c(C(=O)Nc3ccccc3)cc2S(=O)(=O)NC2=NC(c3ccccc3)c3cc(Cl)ccc3N2)cc1Cl (stereo not given)
Target Of Assay: OVCAR-8 ovarian
Result: > 100 µM

Compound: COC(=O)C1=C(C(=O)OC)N(c2ccc(OC)cc2[N+](=O)[O-])C(c2ccc(C)cc2)=CC1c1ccc(OC)cc1OC (stereo not given)
Target Of Assay: OVCAR-8 ovarian
Result: 47.9 µM

Compound: CC1(C)OC(C(=O)Nc2cc3c4ccccc4ccc3c3ccccc23)C(C(=O)N2CCCCC2)O1 (stereo not given)
Target Of Assay: OVCAR-8 ovarian
Result: > 100 µM

Compound: Cc1c(O)ccc2c(O)c(NC(=O)c3ccc4c(c3)CCC(C)(C)O4)c(=O)oc12
Target Of Assay: OVCAR-8 ovarian
Result: > 100 µM

Compound: S=C(Nc1ccc(Cl)cc1)Nc1ccc(-c2nc3ccccc3s2)cc1
Target Of Assay: OVCAR-8 ovarian
Result: 41.7 µM

// for each compound below, give its TGI
1. CCOC(=O)NC(Nc1ccc(C)cc1)(C(F)(F)F)C(F)(F)F
2. CCOC(=O)C(C#N)C1=CC(=O)C(=O)c2ccc(OC)cc21 (stereo not given)
3. Cc1c2n(c(=O)[nH]c1=O)C1OC(CO)C(O2)C1O (stereo not given)
4. Cn1cc(C2=C(c3ccc(N)cc3)C(=O)NC2=O)c2ccccc21
5. O=C(CCN(C(=O)O)S(=O)(=O)c1ccc(NC(=O)c2ccccc2)cc1)Nc1ccccc1

[A]
["> 100 µM", "54.4 µM", "> 100 µM", "> 25 µM", "> 100 µM"]
